Source listed as patent US11008340B2.

- target-or-test-system: recombinant RORγ Ligand Binding Domain (LBD) protein (Homo sapiens, UniProt P51449)
- Construct: 6×His; GST
- Sequence (P51449 269-508 limits assumed): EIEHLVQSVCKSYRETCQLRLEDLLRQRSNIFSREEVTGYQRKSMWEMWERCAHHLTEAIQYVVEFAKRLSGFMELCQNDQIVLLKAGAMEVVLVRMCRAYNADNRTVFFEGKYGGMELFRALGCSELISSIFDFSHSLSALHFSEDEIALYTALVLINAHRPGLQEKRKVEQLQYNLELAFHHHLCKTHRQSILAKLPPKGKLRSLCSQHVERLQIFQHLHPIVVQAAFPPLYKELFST
- method-notes: Radio-Ligand RORγ Binding Assay (Assay 1)
- measurement-setup: radio-ligand competition, 25-hydroxy [26,27-3H]-cholesterol, RORγ LBD; read-out: Avg ROR Bind Ki
pKi: −log10 of the molar value.
Reported pKi is given for each of the following molecules.

Solved cases (2 shown):
molecule: CCS(=O)(=O)c1ccc(CNC(=O)c2ccc3c(c2)CCN(Cc2ncc(Br)cn2)[C@@H]3C(C)C)cc1 (single isomer, unassigned)
pKi: 6.00 to 7.00

molecule: CCOC(=O)c1cnc(N2CCc3cc(C(=O)NCc4ccc(S(=O)(=O)CC)cc4)ccc3[C@@H]2C(C)C)nc1C(F)(F)F (single isomer, unassigned)
pKi: > 7.00

Here is another molecule to look at.
Prompt line: Dear colleague, I am looking for the recorded pKi of the following molecule: CCS(=O)(=O)c1ccc(CNC(=O)c2c[nH]c3c(OC[C@H]4CC[C@H](C(F)(F)F)CC4)nccc23)cc1
Response line: 6.00 to 7.00

* * *

Ki for assorted molecules
- target-or-test-system: recombinant RORγ Ligand Binding Domain (LBD) protein (Homo sapiens, UniProt P51449)
- Construct: 6×His; GST
- method-notes: Radio-Ligand RORγ Binding Assay (Assay 1)
- measurement-setup: radio-ligand competition, 25-hydroxy [26,27-3H]-cholesterol, RORγ LBD; read-out: Avg ROR Bind Ki

Example molecules with recorded Ki:
molecule: CCOC(=O)c1cnc(N2CCc3cc(C(=O)NCc4ccc(S(=O)(=O)CC)cc4)ccc3[C@H]2C(C)C)nc1C(F)(F)F (single isomer, unassigned)
result: 100 to 1000 nM
--
molecule: CCS(=O)(=O)c1ccc(CNC(=O)c2ccc3c(c2)CN(c2ncc(F)cn2)C[C@@H]3C(C)C)cc1 (single isomer, unassigned)
result: < 100 nM
--
molecule: CCS(=O)(=O)c1ccc(CNC(=O)c2ccc3c(C4CC4)n(C[C@H]4CC[C@H](C(F)(F)F)CC4)nc3c2)cc1
result: < 100 nM
--
molecule: CCS(=O)(=O)c1ccc([C@H](CO)NC(=O)c2ccc3c(Oc4ccc(OC(F)(F)F)cc4)nc(C)cc3c2)cc1
result: < 100 nM
--
molecule: CCOC(=O)c1cnc(N2Cc3cc(C(=O)NCc4ccc(S(=O)(=O)CC)cc4)ccc3[C@@H](C(C)C)C2)nc1C(F)(F)F (single isomer, unassigned)
result: < 100 nM

Prompt line: Could you tell me which Ki is on file for CCS(=O)(=O)c1ccc(CNC(=O)c2ccc3c(C4CC4)n(C[C@H]4CC[C@H](C(F)(F)F)CC4)nc3c2)nc1 ?
Response line: < 100 nM

Prompt line: Would you kindly share the measured Ki for CCS(=O)(=O)c1ccc([C@H](CO)NC(=O)c2ccc3c(OC[C@H]4CC[C@H](C(F)(F)F)CC4)cc(C)nc3c2)cc1 ?
Response line: 100 to 1000 nM

Prompt line: Which measured Ki value corresponds to CCS(=O)(=O)c1ccc(CNC(=O)c2ccc3c(c2)CCN(Cc2ccc(C#N)cc2)C3C)cc1 (racemic) ?
Response line: 100 to 1000 nM

Prompt line: What measured Ki goes with CCS(=O)(=O)c1ccc(CNC(=O)c2ccc3c(c2)CN(c2ncc(F)cn2)C[C@H]3C(C)C)cc1 (single isomer, unassigned) ?
Response line: < 100 nM

Prompt line: // query Ki value for entry CCS(=O)(=O)c1ccc(CNC(=O)c2ccc3c(c2)CN(Cc2ccc(Cl)cc2)C[C@H]3C(C)C)cc1 (single isomer, unassigned)
Response line: < 100 nM

* * *

- target-or-test-system: full-length RORγt in Jurkat cells (Homo sapiens)
- Construct: transcriptional activity of the full-length RORγt in Jurkat cells; host or cells: Jurkat cells (ATCC TIB-152)
- method-notes: RORγt 5×RORE Assay in Jurkat Cells (Assay 2)
- Assay type: cell-based
- measurement-setup: 5×RORE luciferase reporter, Table 20, read-out: Avg ROR γt/5x IC5
molecules and their reported IC50

// below: answered molecules
molecule: CC[C@H]1CN(c2ncc(Cl)cn2)Cc2cc(C(=O)N[C@@H](CO)c3ccc(S(=O)(=O)CC)cc3)ccc21 (single isomer, unassigned) [Hy7-6.2]
IC50: > 1000 nM

molecule: CC[C@H]1CN(c2ccc(C(F)(F)F)cc2)Cc2cc(C(=O)NCc3ccc(S(=O)(=O)CC)cc3)ccc21 (single isomer, unassigned) [Hy7-7.2]
IC50: 100 to 1000 nM

molecule: CCS(=O)(=O)c1ccc(CNC(=O)c2ccc3c(c2)CN(c2ncc(C4CC4)cn2)C[C@H]3C(C)C)cc1 (single isomer, unassigned) [Hy7-4.1]
IC50: 100 to 1000 nM

molecule: CC[C@H]1CN(c2ccc(C(F)(F)F)cn2)Cc2cc(C(=O)NCc3ccc(S(=O)(=O)CC)cc3)ccc21 (single isomer, unassigned) [Hy7-8.2]
IC50: 100 to 1000 nM

molecule: CCS(=O)(=O)c1ccc(CNC(=O)c2ccc3c(c2)CN(Cc2ccc(C#N)cc2)C[C@@H]3C(C)C)cc1 (single isomer, unassigned) [Hy7-28.2]
IC50: < 100 nM

Next item in the queue.
Prompt line: IC50 for CC[C@@H]1CN(c2ncc(-c3cccc(OC)n3)cn2)Cc2cc(C(=O)NCc3ccc(S(=O)(=O)CC)cc3)ccc21 (single isomer, unassigned) [Hy7-20.1] ?
Response line: < 100 nM

* * *

Overview of recorded IC50 for various compounds
- target-or-test-system: full-length RORγt in Jurkat cells (Homo sapiens)
- Construct: transcriptional activity of the full-length RORγt in Jurkat cells; host or cells: Jurkat cells (ATCC TIB-152)
- method-notes: RORγt 5×RORE Assay in Jurkat Cells (Assay 2)
- Assay type: cell-based
- measurement-setup: 5×RORE luciferase reporter, read-out: Avg ROR γt/5x IC50

compound: CCS(=O)(=O)c1ccc(CNC(=O)c2ccc3c(OCc4ccc(C(F)(F)F)cc4)nccc3c2)cc1
IC50: 0.1 to 1 µM

compound: CCS(=O)(=O)c1ccc(CNC(=O)c2ccc3c(c2)CCN(CC2CCN(C(=O)OC)CC2)[C@H]3C(C)C)cc1
IC50: 0.1 to 1 µM

compound: CCS(=O)(=O)c1ccc([C@H](CO)NC(=O)c2ccc3c(OC[C@H]4CC[C@H](C(F)(F)F)CC4)nc(C4CC4)cc3c2)cc1
IC50: < 0.1 µM

compound: CCS(=O)(=O)c1ccc(CNC(=O)c2ccc3c(c2)CCN(Cc2ncc(C)cn2)[C@H]3C(C)C)cc1 (single isomer, unassigned)
IC50: 0.1 to 1 µM

compound: CCS(=O)(=O)c1ccc(CNC(=O)c2ccc3c(c2)CCN(Cc2ccc(Cl)cn2)C3C(C)C)cc1 (racemic)
IC50: < 0.1 µM

compound: CCS(=O)(=O)c1ccc([C@H](CO)NC(=O)c2ccc3c(OC[C@H]4CC[C@H](C(F)(F)F)CC4)nc(C)cc3c2)cc1
IC50: < 0.1 µM

Attention now shifts to the item below.
Prompt line: Entry CCS(=O)(=O)c1ccc([C@H](CO)NC(=O)c2ccc3c(OCC4CCC(F)(F)CC4)nc(C)cc3c2)cc1 , system full-length RORγt in Jurkat cells (Homo sapiens): what IC50 was measured?
Response line: < 0.1 µM

* * *

The following compounds are listed with their measured Ki values.
- target-or-test-system: recombinant RORγ Ligand Binding Domain (LBD) protein (Homo sapiens, UniProt P51449)
- Construct: 6×His; GST
- method-notes: Radio-Ligand RORγ Binding Assay (Assay 1)
- measurement-setup: radio-ligand competition, 25-hydroxy [26,27-3H]-cholesterol, RORγ LBD; read-out: Avg ROR Bind Ki

compound: CCS(=O)(=O)c1ccc(CNC(=O)c2ccc3c(c2)CN(c2nccc(C(F)(F)F)n2)C[C@H]3C(C)C)cc1 (single isomer, unassigned)
result: < 100 nM

Prompt line: Tell me the measured Ki of CCS(=O)(=O)c1ccc(CNC(=O)c2ccc3c(c2)CN(c2ncc(Cl)cn2)C[C@H]3C(C)C)cc1 (single isomer, unassigned) , please.
Response line: < 100 nM

Prompt line: Fill in the blank: the reported Ki of CC[C@H]1CN(c2ncc(C(F)(F)F)cn2)Cc2cc(C(=O)NCc3ccc(S(=O)(=O)CC)cc3)ccc21 (single isomer, unassigned) is ____.
Response line: < 100 nM

Prompt line: Which Ki value is on record for CCOC(=O)c1cnc(N2Cc3cc(C(=O)NCc4ccc(S(=O)(=O)CC)cc4)ccc3[C@H](C(C)C)C2)nc1C(F)(F)F (single isomer, unassigned) ?
Response line: < 100 nM

Prompt line: Returns the measured Ki for the input compound. Input: CCS(=O)(=O)c1ccc(CNC(=O)c2ccc3c(c2)CCN(Cc2ccc(C#N)nc2)[C@H]3C(C)C)cc1 (single isomer, unassigned)
Response line: < 100 nM

Prompt line: Please report the recorded Ki for CCS(=O)(=O)c1ccc(CNC(=O)c2ccc3c(c2)CCN(Cc2ccc(C#N)cn2)[C@@H]3C(C)C)cc1 (single isomer, unassigned) .
Response line: 100 to 1000 nM
